target_entity: Muscarinic acetylcholine receptor M4 (Homo sapiens) (UniProt P08173)
Sequence (P08173 whole entry, looked up): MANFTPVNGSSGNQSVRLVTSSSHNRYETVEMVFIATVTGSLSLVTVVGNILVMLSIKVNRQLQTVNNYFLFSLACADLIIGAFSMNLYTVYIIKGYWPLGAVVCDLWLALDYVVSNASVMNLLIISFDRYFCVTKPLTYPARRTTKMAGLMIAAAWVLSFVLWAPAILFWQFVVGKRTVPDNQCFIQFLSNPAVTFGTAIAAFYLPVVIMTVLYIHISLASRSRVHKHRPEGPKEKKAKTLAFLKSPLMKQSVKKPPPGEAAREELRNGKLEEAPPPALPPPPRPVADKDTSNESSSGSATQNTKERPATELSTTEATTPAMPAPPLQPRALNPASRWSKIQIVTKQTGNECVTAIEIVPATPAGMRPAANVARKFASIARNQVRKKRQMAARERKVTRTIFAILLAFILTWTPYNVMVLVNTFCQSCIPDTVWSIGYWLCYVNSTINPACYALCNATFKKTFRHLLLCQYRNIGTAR
procedure_summary: compounds altering M4/GIRK thallium flux, either direction, primary screen, M4 allosteric agonist project, cell-based, HEK293 M4/GIRK, BTC-AM (AID 625);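 further: thallium influx through GIRK channels coupled to M4 in HEK293 cells with BTC-AM dye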
assay_conditions: at 10 µM, actives lie on both sides
The source made the active and inactive calls.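 How the source made its calls: active means fluorescence slope after compound addition differing from the mean of all tested samples at 99.7% confidence, mostly higher but some lower; inactive means the rest.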
Possible outcomes: 1 (yes) = active, 0 (no) = inactive

- compound: "CC(NC(=O)NC(N)=O)(C(F)(F)F)C(F)(F)F"
  class_name: "0 (no)"
- compound: "Cc1ccc2[nH]c3c(N4CCOCC4)ncnc3c2c1"
  class_name: "0 (no)"
- compound: "COC(=O)/C=c1/s/c(=C(/C#N)C(=O)N2CCOCC2)n(-c2ccccc2)c1=O"
  class_name: "0 (no)"
- compound: "Cc1cc(/C=c2/sc3nc4ccccc4n3c2=O)c(C)n1-c1ccccn1"
  class_name: "0 (no)"
- compound: "N#Cc1nc(COc2ccc(Br)cc2)oc1N1CCCC1"
  class_name: "0 (no)"
- compound: "Cn1c(=O)c2c(nc(NCc3ccc4c(c3)OCO4)n2Cc2ccccc2F)n(C)c1=O"
  class_name: "0 (no)"
- compound: "CC(=O)Nc1ccc(-c2cc3ccccc3o2)cc1"
  class_name: "0 (no)"
- compound: "C(=N\\n1cnnc1)/c1cccnc1"
  class_name: "0 (no)"
- compound: "CCCCc1nc(NCCN2CCOCC2)c(C#N)c2c1COC(C)(C)C2"
  class_name: "0 (no)"
- compound: "C/C(=N\\O)C(=O)NCCCNCCCN(C)C"
  class_name: "0 (no)"
- compound: "CN1CCN2c3ccccc3Cc3ccccc3C2C1 (centres undefined)"
  class_name: "1 (yes)"
- compound: "C/C(=C\\C(=O)O)CC(=O)O"
  class_name: "0 (no)"
- compound: "CCOC(=O)C1(C(=O)OCC)C(c2ccccc2)CC(O)N1C(C)=O (centres undefined)"
  class_name: "0 (no)"
- compound: "CC(O)c1n(C)c(Cl)c[n+]1C (centres undefined)"
  class_name: "0 (no)"
- compound: "Cc1nnc(NCc2n[nH]c(=O)c3ccccc23)c2ccccc12"
  class_name: "0 (no)"
- compound: "CCCCCn1c2nc3ccccc3nc2c2c(=O)n(CC(C)C)cnc21"
  class_name: "0 (no)"
- compound: "CCOC(=O)c1ccc(N=Cc2nc(-c3ccccc3)oc2OC(C)=O)cc1"
  class_name: "0 (no)"
- compound: "Cc1ccc(NC(=O)CSC2=C(C#N)C(c3ccc4c(c3)OCO4)CC(=O)N2)cc1C (centres undefined)"
  class_name: "0 (no)"
- compound: "Cc1cc2c(c(=O)o1)C(Cc1ccccc1)C(C#N)=C(N)O2 (centres undefined)"
  class_name: "0 (no)"
